# testSummary: qHTS profiling for inhibitors of Plasmodium falciparum proliferation (AID 504749);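 also: 0% = DMSO vehicle and full inhibition = artemisinin control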
# protocolConditions: P. falciparum in erythrocytes, SYBR Green DNA, 72 h; at 12.8 µM (top of the series); parasite line B
Results filed as inconclusive are left out.
observationType: activity, negative = inhibition (%)
Numeric only. Scale: %

Please review the following examples before continuing.
O=C(O)CCC(=O)c1ccc(-c2ccccc2)cc1; 12.2
CCCOc1cc(N)ccc1C(=O)OCCN(CC)CC; 4.44
CC(=O)N=c1sc(S(N)(=O)=O)nn1C; -5.64
CN1CCc2c(c3ccccc3n2Cc2ccccc2)C1; -7.12
CCSc1ccc2c(c1)N(CCCN1CCN(C)CC1)c1ccccc1S2; 7.58

For CC(=O)Oc1cc(C(F)(F)F)ccc1C(=O)O the compound record lists activity, negative = inhibition as 12.5
